Readings of EC50 for the listed binders
SYSTEM: T1, human ErbB3-Fc (R&D Systems) (human, UniProt P21860 20-643)
T1 construct: Bought protein; also called wild-type ErbB3-Fc fusion; immobilized ErbB3; not shown: Fc part of the bought fusion protein; not described
METHOD NOTES: ELISA on ErbB3-Fc, soluble monovalent Sab (Example 42)
Number in nM, nothing else.

Solved entries:
| BINDER | UNIT OF MEASUREMENT | EC50 |
| --- | --- | --- |
| 2995-C05 (other, copies: 1 + 1) VH: EVQLLESGGGLVQPGGSLRLSCAASGFTFSDYWMHWVRQAPGKGLEWVAAISSGSSYTYYADSVKGRFTISRDNSKNTLYLQMNSLRAEDTAVYYCAKDNFILLNSWFDYWGQGTLVTVSS surrogate light: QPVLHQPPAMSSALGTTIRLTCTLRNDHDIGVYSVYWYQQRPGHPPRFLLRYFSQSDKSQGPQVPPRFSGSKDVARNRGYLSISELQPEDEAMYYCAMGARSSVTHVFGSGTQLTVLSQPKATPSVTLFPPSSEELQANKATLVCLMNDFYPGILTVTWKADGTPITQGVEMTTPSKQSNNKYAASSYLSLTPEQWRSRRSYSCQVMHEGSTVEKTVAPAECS | nM | 0.015 |
| 2995-E12 (other) VH: EVQLLESGGGLVQPGGSLRLSCAASGFTFSNYWMHWVRQAPGKGLEWVALISSGSTYISYADSVKGRFTISRDNSKNTLYLQMNSLRAEDTAVYYCAKDNFILLNSWFDYWGQGTLVTVSS light: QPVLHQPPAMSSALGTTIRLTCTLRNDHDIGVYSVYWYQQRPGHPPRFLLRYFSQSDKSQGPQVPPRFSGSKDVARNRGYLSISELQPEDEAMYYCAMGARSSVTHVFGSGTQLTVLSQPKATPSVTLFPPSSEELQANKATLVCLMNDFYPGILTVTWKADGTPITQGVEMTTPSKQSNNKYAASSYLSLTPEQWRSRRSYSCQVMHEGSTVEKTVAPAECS | nM | 0.04 |
| 2995-D01 (other) VH: EVQLLESGGGLVQPGGSLRLSCAASGFTFSSYWMSWVRQAPGKGLEWVALISNGGSIKYYADSVKGRFTISRDNSKNTLYLQMNSLRAEDTAVYYCAKDNFILLNSWFDYWGQGTLVTVSS light: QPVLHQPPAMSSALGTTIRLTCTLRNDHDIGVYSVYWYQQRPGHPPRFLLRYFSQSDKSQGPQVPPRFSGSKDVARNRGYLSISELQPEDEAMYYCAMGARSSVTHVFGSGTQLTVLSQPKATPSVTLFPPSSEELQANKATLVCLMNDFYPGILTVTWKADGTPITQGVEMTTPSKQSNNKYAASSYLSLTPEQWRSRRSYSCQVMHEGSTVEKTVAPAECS | nM | 0.038 |
| 2995-D03 (other, copies: 1 + 1) VH: EVQLLESGGGLVQPGGSLRLSCAASGFTFSSYAMHWVRQAPGKGLEWVALISNGSGYKYYADSVKGRFTISRDNSKNTLYLQMNSLRAEDTAVYYCAKDNFILLNSWFDYWGQGTLVTVSS light: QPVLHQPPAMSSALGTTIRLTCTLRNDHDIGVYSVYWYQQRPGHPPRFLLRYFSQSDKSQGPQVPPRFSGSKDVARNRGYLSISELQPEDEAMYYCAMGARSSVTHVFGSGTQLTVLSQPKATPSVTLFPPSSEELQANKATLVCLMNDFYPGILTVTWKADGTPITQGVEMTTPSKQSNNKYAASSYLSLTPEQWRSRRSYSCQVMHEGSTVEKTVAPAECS | nM | 0.015 |
| 2995-D07 (other, copies: 1 + 1) VH: EVQLLESGGGLVQPGGSLRLSCAASGFTFSNYWMHWVRQAPGKGLEWVAAISNGGGYKYYADSVKGRFTISRDNSKNTLYLQMNSLRAEDTAVYYCAKDNFILLNSWFDYWGQGTLVTVSS surrogate light: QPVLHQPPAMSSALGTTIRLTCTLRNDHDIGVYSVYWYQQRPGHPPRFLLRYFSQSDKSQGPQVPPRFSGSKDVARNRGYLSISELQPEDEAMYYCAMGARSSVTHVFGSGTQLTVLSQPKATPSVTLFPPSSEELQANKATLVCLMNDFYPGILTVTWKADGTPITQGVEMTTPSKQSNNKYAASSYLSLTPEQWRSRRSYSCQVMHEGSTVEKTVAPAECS | nM | 0.033 |

Req: What value of measured EC50 is listed for 2995-C10 (other, copies: 1 + 1) VH: EVQLLESGGGLVQPGGSLRLSCAASGFTFSSYWMHWVRQAPGKGLEWVAGISGGGAYTYYADSVKGRFTISRDNSKNTLYLQMNSLRAEDTAVYYCAKDNFILLNSWFDYWGQGTLVTVSS light: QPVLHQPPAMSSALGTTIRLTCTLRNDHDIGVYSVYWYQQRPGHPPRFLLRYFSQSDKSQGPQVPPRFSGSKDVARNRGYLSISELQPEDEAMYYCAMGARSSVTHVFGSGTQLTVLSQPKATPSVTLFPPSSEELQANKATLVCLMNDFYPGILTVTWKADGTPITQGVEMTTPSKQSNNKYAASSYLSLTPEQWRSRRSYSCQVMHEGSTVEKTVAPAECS ?
Resp: 0.02

Req: Same lookup for 2995-G11 (other, copies: 1 + 1) VH: EVQLLESGGGLVQPGGSLRLSCAASGFTFSSYWMHWVRQAPGKGLEWVSAISSGGGYIYYADSVKGRFTISRDNSKNTLYLQMNSLRAEDTAVYYCAKDNFILLNSWFDYWGQGTLVTVSS surrogate light: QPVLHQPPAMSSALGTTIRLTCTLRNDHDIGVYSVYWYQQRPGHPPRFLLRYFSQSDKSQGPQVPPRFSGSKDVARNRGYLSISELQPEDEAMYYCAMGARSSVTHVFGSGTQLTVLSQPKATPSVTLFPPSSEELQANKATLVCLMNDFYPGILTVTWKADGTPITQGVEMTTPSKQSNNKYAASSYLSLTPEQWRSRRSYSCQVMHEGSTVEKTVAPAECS , please.
Resp: 0.029

Cited source: patent US20140308287A1
